- Procedure Summary: Compound concentrations in organs and plasma after three consecutive daily s.c. treatments (Figure 6B, S7)
- Type: in vivo, mice
- Measurement Parameters: mouse, liver, sc; after 28 h; repeated daily s.c. treatment; read-out: concentration in liver
I'd be grateful if you could share measured concentration at 28 h for these entries.
Please respond with the number in nM and leave the unit unwritten.

Retrieve concentration at 28 h measured for CCCCc1nc2c(N)nc3ccccc3c2n1CCC1CCN(C(=O)CN(C)CC(=O)N(C)C2CC(C)OC(OC3C(C)C(OC4CC(C)(OC)C(O)C(C)O4)C(C)C(=O)OC(CC)C(C)(O)C(O)C(C)N(C)CC(C)CC3(C)O)C2O)CC1 (stereo not drawn) and print it.
4460

Retrieve concentration at 28 h measured for CCCCc1nc2c(N)nc3ccccc3c2n1CCC1CCNCC1 and print it.
82

Retrieve concentration at 28 h measured for CC(C)Cn1cnc2c(N)nc3ccccc3c21 and print it.
824

====

I'd be grateful if you could share measured compound plasma level at peak for these entries.
- Procedure Summary: Compound concentrations in organs and plasma after three consecutive daily s.c. treatments (Figure 6B, S7)
- Format: in vivo, mice
- Measurement Parameters: day 2, 60 min after application, s.c.
- Method: All samples were extracted with 3 or 6 volumes acetonitrile containing terbuthylazine as an internal standard (ACN) relative to either sample weight or volume. […] Quantification of analytes was performed on an Agilent 1260/1290 Infinity system fitted with an Agilent C18 Poroshell 120 column (4.6 x 50 mm, 2.7 µm) coupled to a triple quadrupole Sciex API 4000 MS/MS detector. […] at time points 4 h and 52 h. Compound concentrations were analyzed by HPLC-MS/MS, data
Please respond with the number in nM and leave the unit unwritten.

Retrieve compound plasma level at peak measured for CCCCc1nc2c(N)nc3ccccc3c2n1CCC1CCNCC1 and print it.
85

Retrieve compound plasma level at peak measured for CCCCc1nc2c(N)nc3ccccc3c2n1CCC1CCN(C(=O)CN(C)CC(=O)N(C)C2CC(C)OC(OC3C(C)C(OC4CC(C)(OC)C(O)C(C)O4)C(C)C(=O)OC(CC)C(C)(O)C(O)C(C)N(C)CC(C)CC3(C)O)C2O)CC1 (stereo not shown) and print it.
585

Retrieve compound plasma level at peak measured for CC(C)Cn1cnc2c(N)nc3ccccc3c21 and print it.
606

====

- Procedure Summary: Compound concentrations in organs and plasma after three consecutive daily s.c. treatments (Figure 6B, S7)
- Type: in vivo, mice
- Measurement Parameters: day 1, 60 min after application, s.c.
I'd be grateful if you could share measured compound plasma level at peak for these entries.
Please respond with the number in nM and leave the unit unwritten.

Retrieve compound plasma level at peak measured for CC(C)Cn1cnc2c(N)nc3ccccc3c21 [IMQ, Imiquimod] and print it.
796

Retrieve compound plasma level at peak measured for CCCCc1nc2c(N)nc3ccccc3c2n1CCC1CCN(C(=O)CN(C)CC(=O)N(C)C2CC(C)OC(OC3C(C)C(OC4CC(C)(OC)C(O)C(C)O4)C(C)C(=O)OC(CC)C(C)(O)C(O)C(C)N(C)CC(C)CC3(C)O)C2O)CC1 (stereo not shown) [A1-mac] and print it.
755

Retrieve compound plasma level at peak measured for CCCCc1nc2c(N)nc3ccccc3c2n1CCC1CCNCC1 [A1] and print it.
171

====

- Procedure Summary: Cassette bioavailability i.v., i.p., p.o. (blood and organ concentrations by HPLC-MS/MS)
- Type: in vivo, C57BL/6 mice
- Measurement Parameters: female, C57BL/6, mouse, whole blood, po, p.o. 2 mg/kg, 15 min after application
I'd be grateful if you could share measured Cmax for these entries.
Please respond with the number in nM and leave the unit unwritten.

Retrieve Cmax measured for CCOCc1nc2c(N)nc3ccccc3c2n1CC(C)(C)O [RSQ, Resiquimod, reference compound] and print it.
41

Retrieve Cmax measured for CCCCc1nc2c(N)nc3ccccc3c2n1CCC1CCN(C(=O)CN(C)CC(=O)N(C)C2CC(C)OC(OC3C(C)C(OC4CC(C)(OC)C(O)C(C)O4)C(C)C(=O)OC(CC)C(C)(O)C(O)C(C)N(C)CC(C)CC3(C)O)C2O)CC1 (stereo not drawn) and print it.
28

Retrieve Cmax measured for CCCCc1nc2c(N)nc3ccccc3c2n1CC1CCN(C(=O)CN(C)CC(=O)N(C)[C@H]2C[C@@H](C)O[C@@H](O[C@@H]3[C@@H](C)[C@H](O[C@H]4C[C@@](C)(OC)[C@@H](O)[C@H](C)O4)[C@@H](C)C(=O)O[C@H](CC)[C@@](C)(O)[C@H](O)[C@@H](C)N(C)C[C@H](C)C[C@@]3(C)O)[C@@H]2O)CC1 and print it.
22

Source: paper PMC10319141
